System: MV-4-11 cells (human acute myelogenous leukemia cell line carrying MLL-AF4 mutation)
Test: Cell proliferation assay, MV-4-11 (CellTiter-Glo)
Format: cell-based
Details: Homo sapiens, MV4-11, 72 h, MV-4-11 cells, 3 days treatment, CellTiter-Glo; read-out: GI50
Attribute measured: GI50

Query: Item CCN(C(=O)c1cc(F)ccc1Oc1nncnc1N1CC2(CCN(CC3CCN(c4cc(OC)c(OC)nn4)CC3)CC2)C1)C(C)C has what recorded GI50?
Reply: 2 nM

Query: Item CCN(C(=O)c1cc(F)ccc1Oc1nncnc1N1CC2(CCN(CC3CCN(c4cc(OC)c(OC)nn4)CC3)C2)C1)C(C)C has what recorded GI50?
Reply: 2 nM

Query: Item CCN(C(=O)c1cc(F)ccc1Oc1nncnc1N1CC2(CCN(Cc3ccc(-c4ccccn4)cc3)CC2)C1)C(C)C has what recorded GI50?
Reply: 505 nM

Query: Item CCN(C(=O)c1cc(F)ccc1Oc1nncnc1N1CC2(CCN(CC3CCN(CC(O)C(N)=O)CC3)CC2)C1)C(C)C (stereo not drawn) has what recorded GI50?
Reply: 1390 nM

Query: Item COc1cc(N2CCC(CN3CCC4(CC3)CN(c3ncnnc3Oc3ccc(F)cc3C(=O)N3CCC[C@H]3C)C4)CC2)nnc1OC has what recorded GI50?
Reply: 9 nM

Query: Item CCN(C(=O)c1cc(F)ccc1Oc1nncnc1N1CC2(CCN(Cc3ccc4oc(C(=O)NC)cc4c3)CC2)C1)C(C)C has what recorded GI50?
Reply: 176 nM

Query: Item COc1cc(N2CCC(CN3CCC4(CC3)CN(c3ncnnc3Oc3ccc(F)cc3C(=O)OC(C)C)C4)CC2)nnc1OC has what recorded GI50?
Reply: 7 nM

Query: Item CCN(C(=O)c1cc(F)ccc1Oc1nncnc1N1CC2(CCN(CC3CCN(C(=O)c4ccccc4F)CC3)CC2)C1)C(C)C has what recorded GI50?
Reply: 27 nM

Query: Item COc1cc(N2CCC(CN3CCC4(CC3)CN(c3ncnnc3Oc3ccc(F)c5c3cnn5C(C)C)C4)CC2)nnc1OC has what recorded GI50?
Reply: > 3300 nM

Query: Item CCN(C(=O)c1cc(F)ccc1Oc1nncnc1N1CC(C2CCCN2Cc2ccc3[nH]c(C#N)cc3c2C)C1)C(C)C (stereo not drawn) has what recorded GI50?
Reply: 199 nM

Query: Item CCN(C(=O)c1cc(F)ccc1Oc1nncnc1N1CC2(CCN(CC3CCN(c4ncccc4C(N)=O)CC3)CC2)C1)C(C)C has what recorded GI50?
Reply: 21 nM

Query: Item CCN(C(=O)c1cc(F)ccc1Oc1nncnc1N1CC2(CCN(CC3CCN(S(C)(=O)=O)CC3)CC2)C1)C(C)C has what recorded GI50?
Reply: 87 nM

Query: Item Cc1nc(-c2cc(F)ccc2Oc2nncnc2N2CC3(CCN(CC4CCN(c5ccc(C#N)cn5)CC4)CC3)C2)n(C(C)C)n1 has what recorded GI50?
Reply: > 3300 nM

Query: Item CCN(C(=O)c1cc(F)ccc1Oc1nncnc1N1CC2(CCN(Cc3cnc(OC)c(Cl)c3C)CC2)C1)C(C)C has what recorded GI50?
Reply: 693 nM

Query: Item [2H]C(c1ccc2[nH]c(C#N)cc2c1C)N1CCC2(CC1)CN(c1ncnnc1Oc1ccc(F)cc1C(=O)N(CC)C(C)C)C2 (stereo not drawn) has what recorded GI50?
Reply: 4 nM

Query: Item CCN(C(=O)c1cc(F)ccc1Oc1nncnc1N1CC2(CCN(CC3CCN(c4ccnc(C(N)=O)c4)CC3)CC2)C1)C(C)C has what recorded GI50?
Reply: 3 nM

Query: Item CCN(C(=O)c1cc(F)ccc1Oc1nncnc1N1CC2(CCN(CC3CCN(c4ccncn4)CC3)CC2)C1)C(C)C has what recorded GI50?
Reply: 13 nM

Query: Item CCN(C(=O)c1cc(F)ccc1Oc1nncnc1N1CC2(CCN(CC3CCN(c4ccc(C#N)cn4)CC3(C)C)CC2)C1)C(C)C (stereo not drawn) has what recorded GI50?
Reply: 27 nM

Query: Item CCN(C(=O)c1cc(F)ccc1Oc1nncnc1N1CC2(CCN(CC3CCN(C(=O)Nc4ccccn4)CC3)CC2)C1)C(C)C has what recorded GI50?
Reply: 23 nM

Query: Item C=CC(=O)Nc1cccc(N2CCC(CN3CCC4(CC3)CN(c3ncnnc3Oc3ccc(F)cc3C(=O)N(CC)C(C)C)C4)CC2)c1 has what recorded GI50?
Reply: 2 nM

Query: Item CCN(C(=O)c1cc(F)ccc1Oc1nncnc1N1CC2(CCN(CC3CCN(c4ccc(C5CC5)nn4)CC3)CC2)C1)C(C)C has what recorded GI50?
Reply: 14 nM

Query: Item CCN(C(=O)c1cc(F)ccc1Oc1nncnc1N1CC2(CCN(CC3CCN(c4cnc(OC)c(OC)c4)CC3)CC2)C1)C(C)C has what recorded GI50?
Reply: 8 nM

Query: Item CCN(C(=O)c1cc(F)ccc1Oc1nncnc1N1CC2(CCN(Cc3ccc(Cl)nc3)CC2)C1)C(C)C has what recorded GI50?
Reply: > 3300 nM

Query: Item CCN(C(=O)c1cc(F)ccc1Oc1nncnc1N1CC2(CCN(CC3CCN(C(=O)Nc4ccccc4F)CC3)CC2)C1)C(C)C has what recorded GI50?
Reply: 16 nM

Query: Item [2H]C(c1ccc2oc(C#N)cc2c1)N1CCC2(CC1)CN(c1ncnnc1Oc1ccc(F)cc1C(=O)N(CC)C(C)C)C2 (stereo not drawn) has what recorded GI50?
Reply: 26 nM

Query: Item CCN(C(=O)c1cc(F)ccc1Oc1nncnc1N1CC2(CCN(CC3CCN(c4ccc(Br)c(=O)n4C)CC3)CC2)C1)C(C)C has what recorded GI50?
Reply: 37 nM

Query: Item CCN(C(=O)c1cc(F)ccc1Oc1nncnc1N1CC2(CCN(Cc3ccc(NCC#N)cc3C)CC2)C1)C(C)C has what recorded GI50?
Reply: 110 nM
